// values below are reported activity coefficient
- METHOD: activity coefficient (dimensionless); of the first substance listed, at infinite dilution; xn = mol fraction of the nth substance listed
- CONDITION INFO: 322.65 K; Liquid; Chromatography; x1 = 0
OBSERVED PROPERTY: activity coefficient

In [3]: df
Out[3]:
                                    compound  observed_measurement
 0  CC1CCCCC1 [methylcyclohexane] + CCn1cc[n+](C)c1.N#CN=C=[N-]                  73.9
 1  C1CCCCCC1 [cycloheptane] + CCn1cc[n+](C)c1.N#CN=C=[N-]                   128
 2  C=CCCCC [hex-1-ene] + CCCCCC[N+](C)(C)C.O=S(=O)([N-]S(=O)(=O)C(F)(F)F)C(F)(F)F                   5.8
 3  CCC(C)CC [3-methylpentane] + CCCCCC[N+](C)(C)C.O=S(=O)([N-]S(=O)(=O)C(F)(F)F)C(F)(F)F                  8.65
 4  CCCCCCCCCCC [undecane] + CCCCCC[N+](C)(C)C.O=S(=O)([N-]S(=O)(=O)C(F)(F)F)C(F)(F)F                  51.2
 5  CC(C)O [propan-2-ol] + CCn1cc[n+](C)c1.N#CN=C=[N-]                   1.2
 6  CCCCCCCCCCCCC [tridecane] + CCCCCC[N+](C)(C)C.O=S(=O)([N-]S(=O)(=O)C(F)(F)F)C(F)(F)F                   100
 7  c1ccccc1 [benzene] + CCn1cc[n+](C)c1.N#CN=C=[N-]                  2.57
 8  Cc1cccc(C)c1 [1,3-dimethylbenzene] + CCCCCC[N+](C)(C)C.O=S(=O)([N-]S(=O)(=O)C(F)(F)F)C(F)(F)F                   1.8
 9  Cc1ccccc1 [toluene] + CCCCCC[N+](C)(C)C.O=S(=O)([N-]S(=O)(=O)C(F)(F)F)C(F)(F)F                  1.31
10  c1ccccc1 [benzene] + CCCCCC[N+](C)(C)C.O=S(=O)([N-]S(=O)(=O)C(F)(F)F)C(F)(F)F                  0.99
11  C=O [methanal] + CCn1cc[n+](C)c1.N#CN=C=[N-]                  0.32
12  OCC(F)(F)F [2,2,2-trifluoroethanol] + CCn1cc[n+](C)c1.N#CN=C=[N-]                   0.1
13  CCCCCCCC [octane] + CCn1cc[n+](C)c1.N#CN=C=[N-]                   290
14  CCCCCCCCCCCC [dodecane] + CCn1cc[n+](C)c1.N#CN=C=[N-]                  1410
15  CCCO [propan-1-ol] + CCCCCC[N+](C)(C)C.O=S(=O)([N-]S(=O)(=O)C(F)(F)F)C(F)(F)F                  1.83
16  CCCC(C)=O [pentan-2-one] + CCCCCC[N+](C)(C)C.O=S(=O)([N-]S(=O)(=O)C(F)(F)F)C(F)(F)F                 0.612

* * *

- METHOD: activity coefficient (dimensionless); of the first substance listed, at infinite dilution; xn = mol fraction of the nth substance listed
- CONDITION INFO: 322.65 K; Liquid; Chromatography; x1 = 0
Some compounds, each annotated with its measured activity coefficient.
OBSERVED PROPERTY: activity coefficient

In [3]: df
Out[3]:
                                    compound  observed_measurement
 0  CC#N [acetonitrile] + CCCCCC[N+](C)(C)C.O=S(=O)([N-]S(=O)(=O)C(F)(F)F)C(F)(F)F                 0.486
 1  C#CCCCC [1-hexyne] + CCCCCC[N+](C)(C)C.O=S(=O)([N-]S(=O)(=O)C(F)(F)F)C(F)(F)F                  2.62
 2  C1CCCCC1 [cyclohexane] + CCCCCC[N+](C)(C)C.O=S(=O)([N-]S(=O)(=O)C(F)(F)F)C(F)(F)F                   6.6
 3  CCC(C)=O [butanone] + CCn1cc[n+](C)c1.N#CN=C=[N-]                  1.59
 4  CCCCCCCCCCCC [dodecane] + CCCCCC[N+](C)(C)C.O=S(=O)([N-]S(=O)(=O)C(F)(F)F)C(F)(F)F                  68.1
 5  CCCCCC [hexane] + CCn1cc[n+](C)c1.N#CN=C=[N-]                   111
 6  CC#N [acetonitrile] + CCn1cc[n+](C)c1.N#CN=C=[N-]                   0.8
 7  C1CCOC1 [tetrahydrofuran] + CCCCCC[N+](C)(C)C.O=S(=O)([N-]S(=O)(=O)C(F)(F)F)C(F)(F)F                 0.686
 8  CCOCC [diethyl ether] + CCCCCC[N+](C)(C)C.O=S(=O)([N-]S(=O)(=O)C(F)(F)F)C(F)(F)F                  1.52
 9  CCc1ccccc1 [ethylbenzene] + CCCCCC[N+](C)(C)C.O=S(=O)([N-]S(=O)(=O)C(F)(F)F)C(F)(F)F                  1.83
10  CC(C)CO [2-methyl-1-propanol] + CCn1cc[n+](C)c1.N#CN=C=[N-]                  1.48
11  CCCCCC [hexane] + CCCCCC[N+](C)(C)C.O=S(=O)([N-]S(=O)(=O)C(F)(F)F)C(F)(F)F                  9.81
12  CCC(=O)CC [pentan-3-one] + CCCCCC[N+](C)(C)C.O=S(=O)([N-]S(=O)(=O)C(F)(F)F)C(F)(F)F                 0.563
13  OCC(F)(F)F [2,2,2-trifluoroethanol] + CCCCCC[N+](C)(C)C.O=S(=O)([N-]S(=O)(=O)C(F)(F)F)C(F)(F)F                 0.157
14  CC1CCCC1 [methylcyclopentane] + CCCCCC[N+](C)(C)C.O=S(=O)([N-]S(=O)(=O)C(F)(F)F)C(F)(F)F                  6.61
15  CCCC=O [butanal] + CCCCCC[N+](C)(C)C.O=S(=O)([N-]S(=O)(=O)C(F)(F)F)C(F)(F)F                 0.657

* * *

- METHOD: activity coefficient (dimensionless); of the first substance listed, at infinite dilution; xn = mol fraction of the nth substance listed
- CONDITION INFO: 352.65 K; Liquid; Chromatography; x1 = 0
OBSERVED PROPERTY: activity coefficient

In [3]: df
Out[3]:
                                   compound  observed_measurement
0  CC(C)CO [2-methyl-1-propanol] + CCCCCC[N+](C)(C)C.O=S(=O)([N-]S(=O)(=O)C(F)(F)F)C(F)(F)F                  1.63
1  c1ccsc1 [thiophene] + CCCCCC[N+](C)(C)C.O=S(=O)([N-]S(=O)(=O)C(F)(F)F)C(F)(F)F                 0.941
2  CC1CCCCC1 [methylcyclohexane] + CCCCCC[N+](C)(C)C.O=S(=O)([N-]S(=O)(=O)C(F)(F)F)C(F)(F)F                  7.54
3  ClC(Cl)Cl [trichloromethane] + CCCCCC[N+](C)(C)C.O=S(=O)([N-]S(=O)(=O)C(F)(F)F)C(F)(F)F                 0.966
4  CC(C)O [propan-2-ol] + CCCCCC[N+](C)(C)C.O=S(=O)([N-]S(=O)(=O)C(F)(F)F)C(F)(F)F                  1.33
5  CCC(C)=O [butanone] + CCCCCC[N+](C)(C)C.O=S(=O)([N-]S(=O)(=O)C(F)(F)F)C(F)(F)F                 0.354
6  CCCCCCCCCCCCCC [tetradecane] + CCCCCC[N+](C)(C)C.O=S(=O)([N-]S(=O)(=O)C(F)(F)F)C(F)(F)F                  84.7

* * *

- METHOD: activity coefficient (dimensionless); of the first substance listed, at infinite dilution; xn = mol fraction of the nth substance listed
- CONDITION INFO: 352.65 K; Liquid; Chromatography; x1 = 0
OBSERVED PROPERTY: activity coefficient

In [3]: df
Out[3]:
                                   compound  observed_measurement
0  CCN(CC)CC [triethylamine] + CCCCCC[N+](C)(C)C.O=S(=O)([N-]S(=O)(=O)C(F)(F)F)C(F)(F)F                  5.04
1  CCCCCCC [heptane] + CCCCCC[N+](C)(C)C.O=S(=O)([N-]S(=O)(=O)C(F)(F)F)C(F)(F)F                  11.9
2  CCCCCCCCCCCCC [tridecane] + CCCCCC[N+](C)(C)C.O=S(=O)([N-]S(=O)(=O)C(F)(F)F)C(F)(F)F                  71.5
3  CCOCC [diethyl ether] + CCCCCC[N+](C)(C)C.O=S(=O)([N-]S(=O)(=O)C(F)(F)F)C(F)(F)F                  1.94
